Tested on: SK-MEL-2 melanoma
Test: NCI tumour cell line growth inhibition, 48 h
value kind: TGI (µM)
Answers are plain numbers, in µM.

molecule | units symbol | TGI
NN/C(=N\S(=O)(=O)c1cc(Cl)c(Oc2ccc([N+](=O)[O-])cc2Cl)c(Cl)c1)Nc1ccc(Cl)cc1 | µM | 35.3

Provide reported TGI for each item, in the same order as listed.
1. CNC(=O)c1cc(Oc2ccc3nc(NC(=O)Nc4ccc(Cl)c(Cl)c4)sc3c2)ccn1
2. CCOC(=O)c1sc(=S)c2c(C(=O)c3ccccc3)c(C(=O)c3ccccc3)sc2c1C(=O)OCC
3. CCOP(=O)(CS(C)=O)O[C@@H]1C[C@H](C)CC[C@H]1C(C)C (stereo not given in full)
4. N#CCCc1nc2ccc(Br)cc2c(=O)n1-c1ccc(O)c([N+](=O)[O-])c1

(A)
1: 5.97; 2: 48.4; 3: 12.8; 4: 34.7

====

Please respond with reported GI50 for every item in the list.
Tested on: KM12 colon
Assay: NCI tumour cell line growth inhibition, 48 h

Below, 5 compounds whose answers are already recorded.
compound | result
COc1n[n+]([O-])c(C)cc1[N+](=O)[O-] | 11.4 µM
COc1ccc(NC2=C(Sc3nc(C)cc(C)n3)C(=O)N(Cc3ccccc3)C2=O)cc1Cl | > 160 µM
O=C1N=C2c3c(sc4c3CCCC4)N=CN2C1N=Nc1ccc(Cl)cc1 (stereo not given) | 13.6 µM
CNC(=O)c1cc(Oc2ccc3nc(NC(=O)Nc4ccc(Cl)c(Cl)c4)sc3c2)ccn1 | 3 µM
Nc1nc(-n2cccn2)nc(-n2cccn2)c1Br | > 100 µM

Your task in this section: give GI50 for each listed record.
1. O=C(CNC(=O)c1cccc2ccccc12)Nc1ccccc1Oc1cccc(O)c1
2. CC(C)(C)Cn1c(N)nc2ccc(-c3[nH]c(C(C)(C)C)nc3-c3ccc(F)cc3)nc21
3. CCOC(=O)c1sc(=S)c2c(C(=O)c3ccccc3)c(C(=O)c3ccccc3)sc2c1C(=O)OCC
4. O=c1cc/c(=N\Nc2ccccc2)c(=O)/c1=N/Nc1ccccc1
5. FC(F)(F)c1ccc2c(c1)N(CCCN1CCN(C3CC3)CC1)c1ccccc1S2

(A)
["2.18 µM", "10.3 µM", "2.44 µM", "> 50 µM", "7.68 µM"]

====

Consider the following molecules; for each one, report its TGI.
Test system: PC-3 prostate
Test: NCI tumour cell line growth inhibition, 48 h

The following molecules have reported results that may help.
molecule | tgt | TGI
CC(=NNC(=S)Nc1ccccc1C)c1cccc(C(C)=NNC(=S)Nc2ccccc2C)n1 | PC-3 prostate | > 100 µM
COc1cc(/C=C2\CCCC3=C2NC(N)=NC3c2cc(OC)c(OC)c(OC)c2)cc(OC)c1OC (stereo not given) | PC-3 prostate | > 100 µM
N#C/C(=C\c1ccc(Cl)cc1)c1nc2ccccc2c(=O)[nH]1 | PC-3 prostate | > 100 µM
Cc1sc2ncnc(Sc3nc4ccccc4[nH]3)c2c1C | PC-3 prostate | > 100 µM
COc1cc(N2CCC(N(C)C)CC2)ccc1Nc1ncc(Cl)c(Nc2ccccc2P(C)(C)=O)n1 | PC-3 prostate | > 96.6 µM

// input: 2 molecules below; output: TGI for each
1. Clc1cc(Cl)cc(N2N=C(c3cccc(Nc4ccncc4)c3)CC2c2ccccc2)c1 (stereo not given)
2. CN1CC=C(OP(=O)(NCc2ccccc2)N(CCCl)CCCl)CC1 (stereo not given)

(A)
["5.15 µM", "> 100 µM"]

Could I get TGI for every one of these entries?
1. CC(C#N)Nc1ccc(Oc2ccc(C(C)(C)c3ccc(Oc4ccc(NC(C)C#N)cc4)cc3)cc2)cc1 (stereo not given)
2. Cn1cnc2c(F)c(Nc3ccc(Br)cc3Cl)c(C(=O)NOCCO)cc21
3. Cc1cccc(C(C)O)n1 (stereo not given)

(A)
1: > 100 µM; 2: > 100 µM; 3: > 100 µM

====

Test system: SF-539 CNS
Test: NCI tumour cell line growth inhibition, 48 h
Can you tell me TGI for the items I'm about to list?
Answers are plain numbers, in µM.

# annotated cases, reported TGI shown
compound | tgt | readout number
CC(C)(C)Cn1c(N)nc2ccc(-c3[nH]c(C(C)(C)C)nc3-c3ccc(F)cc3)nc21 | SF-539 CNS | 28.5
CC(C)=CCC/C(C)=C/Cc1cc(/C=C/c2cc(O)c(CC=C(C)C)c(O)c2)cc(O)c1O | SF-539 CNS | 13.8

Please supply TGI for each of the following items, keeping them in order.
1. COc1ncnc2c(NC3OC(CO)C(O)C3O)ncnc12 (centres undefined)
2. CC(=O)OCC(=O)[C@@]1(O)[C@H](C)C[C@H]2[C@@H]3C=C(C)C4=Cc5c(cnn5-c5ccc(F)cc5)C[C@]4(C)[C@H]3[C@@H](O)C[C@@]21C

(A)
1.33
2.35

Sure, the documented TGI for Cc1ccc(-c2c(C#N)c(-c3ccc(N(C)C)cc3)c(C#N)c(=O)n2NS(=O)(=O)c2ccccc2)cc1 is 83.4

====

Tested on: OVCAR-4 ovarian
Experiment: NCI tumour cell line growth inhibition, 48 h
Assign TGI to each entry below.
Give bare numbers, in µM.

structure string | TGI, µM
CC1(C)CCSC(/C=C/c2ccccc2)=N1 | 32.5

For each of the items listed, what is its TGI?
1. CN(C)c1cccc2[nH]c(-c3[nH]ncc3Nc3ccnc(N)n3)nc12
2. COc1ccc(Cl)cc1N1C(=O)C(Cl)=C(Nc2cccc(O)c2)C1=O

(A)
1: 0.706; 2: 40

====

Test system: SF-268 CNS
Assay: NCI tumour cell line growth inhibition, 48 h; in the data active = GI50 below about 0.43 µM; inactive = the rest
Tick one outcome: true = active, false = inactive

The examples below pair each entry with its known result.
compound | label
Clc1cc(Cl)cc(N2N=C(c3cccc(Nc4ccncc4)c3)CC2c2ccccc2)c1 (centres undefined) | false
CN(C)c1cccc2[nH]c(-c3[nH]ncc3Nc3ccnc(N)n3)nc12 | true
COc1ccc(NC2=C(Sc3nc(C)cc(C)n3)C(=O)N(Cc3ccccc3)C2=O)cc1Cl | false
COC(=O)C1=CN(CC2=CC(=O)C(C)=CC2=O)C=C(C(=O)OC)C1c1cccc(OC)c1OC | false
O=C1N=C2c3c(sc4c3CCCC4)N=CN2C1N=Nc1ccc(Cl)cc1 (centres undefined) | false

Next, consider the following compound.
(Q) Would you mind telling me which call this test gave COC(=O)c1c2c(c(C)[n+]([O-])c1C)C(=O)C=C(NCc1ccc(Cl)cc1)C2=O ?
(A) false

====

Tested on: HT29 colon
Assay: NCI tumour cell line growth inhibition, 48 h
I'd appreciate it if you could supply GI50 values for the items below.

compound | result
CC(C)(C)Cn1c(N)nc2ccc(-c3[nH]c(C(C)(C)C)nc3-c3ccc(F)cc3)nc21 | 4.52 µM
COc1nccc(-c2c(-c3ccc(F)cc3)ncn2C2CCC(O)CC2)n1 (configuration not stated) | 42.6 µM
CCCCCCn1c(-c2ccc(C(=O)O/N=C(\N)c3ccc(OC)cc3)cc2)nc(-c2ccccc2)c1-c1ccccc1 | 2.67 µM

# return GI50 for each item in the list
1. O=C(Nc1ccccc1Cl)c1cnc2ccc(C3CCNCC3)cn12
2. CCOC(=O)c1cc2c(cc1Cl)SC(N(c1ccc(F)cc1)S(=O)(=O)c1ccc(OC)cc1)=NS2(=O)=O
3. Clc1cc(Cl)cc(N2N=C(c3cccc(Nc4ccncc4)c3)CC2c2ccccc2)c1 (configuration not stated)
4. FC(F)(F)c1ccc2c(c1)N(CCCN1CCN(C3CC3)CC1)c1ccccc1S2

(A)
1. 1.77 µM
2. 16.1 µM
3. 1.8 µM
4. 3.48 µM

====

Tested on: SN12C renal
Assay: NCI tumour cell line growth inhibition, 48 h
value kind: TGI

Some entries whose results are on file:
compound | TGI
CC(=O)OCC(=O)[C@@]1(O)[C@H](C)C[C@H]2[C@@H]3C=C(C)C4=Cc5c(cnn5-c5ccc(F)cc5)C[C@]4(C)[C@H]3[C@@H](O)C[C@@]21C | 7.08 µM
COc1ccc(NC=O)c(C(O)CCNC(C)=O)c1 (configuration not stated) | > 100 µM

Dear colleague, could you please provide TGI for the compounds listed below?
1. CC1CN=C(NCc2ccccc2)S1 (configuration not stated)
2. CCOP(=O)(CS(C)=O)O[C@@H]1C[C@H](C)CC[C@H]1C(C)C (some centres not stated)
3. CN(C(=O)C1=CCCCCC1)c1ccccc1I
4. CCOc1ccc(NCC(=O)N2CC(=O)Nc3ccccc32)cc1
5. Oc1ccccc1C=Nc1ccc(Oc2ccc(Cl)cc2)c(Cl)c1
6. COc1cc(/C=C2\CCCC3=C2NC(N)=NC3c2cc(OC)c(OC)c(OC)c2)cc(OC)c1OC (configuration not stated)
7. COc1n[n+]([O-])c(C)cc1[N+](=O)[O-]
8. COC(=O)c1c/c(=N\NC(=O)CC(=O)Nc2ccccc2Cl)c2ccccc2o1

(A)
["> 100 µM", "6.12 µM", "> 100 µM", "> 100 µM", "41.4 µM", "> 100 µM", "31.6 µM", "> 100 µM"]

Okay, here is my list. What is TGI for each of these?
1. CC1CCC2(OC1)OC1CC3C4CC=C5CC(OC6OC(CO)C(OC7OC(C)C(OC8OC(C)C(O)C(O)C8O)C(O)C7O)C(O)C6OC6OC(C)C(O)C(O)C6O)CCC5(C)C4CCC3(C)C1C2C (configuration not stated)
2. CCOC(=O)c1cc2c(cc1Cl)SC(N(c1ccc(F)cc1)S(=O)(=O)c1ccc(OC)cc1)=NS2(=O)=O
3. Cc1ccc2sc3cc(=O)cc(C)c-3nc2c1

(A)
1: 1.04 µM; 2: 50 µM; 3: > 100 µM

Please supply TGI for each of the following items, keeping them in order.
1. C1=CCN(c2ccccc2)CC1
2. CCN(CC)c1ccc(/C=N/NC(=O)c2ccc(Nc3ccnc(C(F)(F)F)c3)cc2)c(O)c1
3. Nc1ccc(N=Nc2ccc(/C=C/c3ccc(N=Nc4ccc(N)c5ccc(S(=O)(=O)O)cc45)cc3S(=O)(=O)O)c(S(=O)(=O)O)c2)c2cc(S(=O)(=O)O)ccc12
4. COc1ccccc1NC(=O)C(C#N)=C(SC)SC
5. O=c1nc2n(CCO)c(-c3ccccc3)c(-c3ccccc3)nc-2c(=O)[nH]1
6. CCCOc1ccc(/C=C/c2cc(OC)c(OC)c(OC)c2)cc1

(A)
87 µM
> 100 µM
> 100 µM
> 100 µM
> 100 µM
> 74 µM

Look up TGI for the entries below, preserving their order.
1. COc1c(O)cc(/C=C/c2cc(O)cc3c2[C@@]2(C(=O)O3)c3c(O)cc(O)cc3OC2c2cccc(O)c2)cc1O (some centres not stated)
2. [N-]=[N+]=Nc1ncc(-c2ccc(C(F)(F)F)cc2)c(NC2CCCCCC2)n1
3. COc1ccc2c(c1)c(Cc1c(C)n(C)c3ccc(OC)cc13)c(C)n2C
4. CC1(C)OC2C(CO)OC(n3ccc(=O)[nH]c3=O)C2O1 (configuration not stated)
5. O=C(Nc1ccccc1Cl)c1cnc2ccc(C3CCNCC3)cn12

(A)
1. 64.3 µM
2. > 10 µM
3. > 100 µM
4. > 100 µM
5. > 100 µM
